biological target: full length active recombinant SYK enzyme (Homo sapiens); construct: full length active recombinant SYK enzyme (Millipore, Calif.); purchased Millipore; experiment: Inhibition of Syk tyrosine phosphorylation activity (LANCE TR-FRET); format: biochemical; conditions: Table 4; 1 nM SYK, 100 μM ATP; read-out: syk IC50
pIC50: −log10 of the molar value.
A collection of compounds and their measured pIC50

- compound: "O[C@H]1CCN(c2nc(Nc3ccc(N4CCNCC4)cc3)nc3[nH]ccc23)C1 [Example 12]"
  pIC50: "< 6.00"
- compound: "CC(=O)N1CCN(c2ccc(Nc3ncc(C(N)=O)c(N4CCCCC4CCO)n3)cc2)CC1 (stereo not drawn)"
  pIC50: "< 6.00"
- compound: "N[C@H]1CCCN(c2nc(Nc3ccc4cn[nH]c4c3)nc3[nH]ccc23)C1"
  pIC50: "6.00 to 7.00"
- compound: "NCC1CCN(c2nc(Nc3ccc(S(N)(=O)=O)cc3)ncc2F)CC1 [Example 32]"
  pIC50: "7.00 to 8.00"
- compound: "NC(=O)C1CCCN(c2nc(Nc3ccc(N4CCNCC4)cc3)nc3[nH]ccc23)C1 (stereo not drawn) [Example 8]"
  pIC50: "6.00 to 7.00"
- compound: "NCC1CCN(c2nc(Nc3ccc4c(c3)CCC(=O)N4)ncc2F)CC1 [Example 33]"
  pIC50: "7.00 to 8.00"
- compound: "COc1cc(Nc2ncc(F)c(N3CCC(CN)CC3)n2)cc(OC)c1OC [Example 17]"
  pIC50: "6.00 to 7.00"
- compound: "CC(=O)N1CCN(c2ccc(Nc3ncc(F)c(N4CCC(CN)CC4)n3)cc2)CC1 [Example 18]"
  pIC50: "7.00 to 8.00"
- compound: "CC(=O)N1CCN(c2ccc(Nc3nc(N4CCC[C@H](N)C4)c4cc[nH]c4n3)cc2)CC1"
  pIC50: "6.00 to 7.00"
- compound: "CC(=O)N1CCN(c2ccc(Nc3nc(N4CCC(CN)CC4)c4nc[nH]c4n3)cc2)CC1 [Example 15]"
  pIC50: "7.00 to 8.00"
- compound: "CC(=O)N(C)c1ccc(Nc2ncc(F)c(N3CCC(CNC(=O)OC(C)(C)C)CC3)n2)cc1 [Example 28]"
  pIC50: "< 6.00"
- compound: "NCC1CCN(c2nc(Nc3ccc4cn[nH]c4c3)ncc2F)CC1 [Example 16]"
  pIC50: "7.00 to 8.00"

---

target: JAK2 (Homo sapiens, UniProt O60674)
Sequence (O60674 whole entry): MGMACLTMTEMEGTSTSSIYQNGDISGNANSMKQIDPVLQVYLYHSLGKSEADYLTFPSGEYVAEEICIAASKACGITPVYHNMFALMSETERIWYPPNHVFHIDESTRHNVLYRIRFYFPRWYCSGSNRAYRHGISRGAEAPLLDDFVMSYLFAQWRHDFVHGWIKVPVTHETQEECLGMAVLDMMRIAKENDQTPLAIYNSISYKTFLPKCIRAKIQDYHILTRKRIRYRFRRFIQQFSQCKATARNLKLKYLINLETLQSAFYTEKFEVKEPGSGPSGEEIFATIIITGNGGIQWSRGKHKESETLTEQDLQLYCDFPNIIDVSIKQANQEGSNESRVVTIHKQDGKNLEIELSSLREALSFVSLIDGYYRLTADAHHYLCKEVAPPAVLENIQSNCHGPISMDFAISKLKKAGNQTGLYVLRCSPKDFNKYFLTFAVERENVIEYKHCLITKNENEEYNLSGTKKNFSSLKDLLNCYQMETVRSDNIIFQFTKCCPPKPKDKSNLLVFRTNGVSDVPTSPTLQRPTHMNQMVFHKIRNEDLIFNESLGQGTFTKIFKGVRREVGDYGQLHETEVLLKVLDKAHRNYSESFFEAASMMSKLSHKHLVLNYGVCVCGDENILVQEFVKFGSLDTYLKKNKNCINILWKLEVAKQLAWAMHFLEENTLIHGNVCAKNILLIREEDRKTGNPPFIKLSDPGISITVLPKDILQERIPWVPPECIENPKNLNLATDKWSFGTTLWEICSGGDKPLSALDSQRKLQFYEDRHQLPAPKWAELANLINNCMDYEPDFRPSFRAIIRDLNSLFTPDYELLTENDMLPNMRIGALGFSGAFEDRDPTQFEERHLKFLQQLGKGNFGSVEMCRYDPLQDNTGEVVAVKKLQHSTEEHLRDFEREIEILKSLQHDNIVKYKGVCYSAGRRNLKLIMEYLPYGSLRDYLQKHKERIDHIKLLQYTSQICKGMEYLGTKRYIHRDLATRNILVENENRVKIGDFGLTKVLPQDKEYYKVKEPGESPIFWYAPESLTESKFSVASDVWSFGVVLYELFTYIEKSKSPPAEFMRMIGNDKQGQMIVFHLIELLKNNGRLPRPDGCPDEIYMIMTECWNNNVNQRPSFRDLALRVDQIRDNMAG
pIC50: −log10 of the molar value.

- compound: "N#CCC(=O)N1CCCC(Nc2nc(Nc3ccc(C(N)=O)cc3)nc3[nH]ccc23)C1 (stereo not drawn) [drawing 212]"
  pIC50: "7.00 to 8.00"
- compound: "CC(=O)N1CCN(c2ccc(Nc3nc(N4CCC(CN)CC4)c4cc[nH]c4n3)cc2)CC1 [drawing 208]"
  pIC50: "6.00 to 7.00"
- compound: "N#Cc1c[nH]c2nc(Nc3ccc(S(N)(=O)=O)cc3)nc(NC3CC3)c12 [drawing 210]"
  pIC50: "7.00 to 8.00"

---

target: full length active recombinant SYK enzyme (Homo sapiens, UniProt P43405); construct: full length active recombinant SYK enzyme (Millipore, Calif.); purchased Millipore; assay: Inhibition of Syk tyrosine phosphorylation activity (LANCE TR-FRET); type: biochemical; details: Table 3; 1 nM SYK, 100 μM ATP; read-out: Syk IC50 code
A collection of compounds and their measured IC50

- compound: "NCC1CCN(c2nc(Nc3ccc4c(c3)CCC(=O)N4)ncc2-c2ccncc2)CC1 [Example 138]"
  target entity: "full length active recombinant SYK enzyme (Homo sapiens, UniProt P43405)"
  IC50: "> 1000 nM"
- compound: "CCOC(=O)CC(N)C1CCN(c2nc(Nc3ccc4c(c3)CCC(=O)N4)ncc2F)CC1 (stereo not shown) [Example 134]"
  target entity: "full length active recombinant SYK enzyme (Homo sapiens, UniProt P43405)"
  IC50: "100 to 1000 nM"
- compound: "CC(=O)N1CCN(c2ccc(Nc3ncc(F)c(N4CCC(CC(N)=O)CC4)n3)cc2)CC1 [Example 126]"
  target entity: "full length active recombinant SYK enzyme (Homo sapiens, UniProt P43405)"
  IC50: "100 to 1000 nM"
- compound: "Nc1nc(Nc2ccc3cn[nH]c3c2)nc2[nH]ccc12 [Example 79]"
  target entity: "full length active recombinant SYK enzyme (Homo sapiens, UniProt P43405)"
  IC50: "100 to 1000 nM"
- compound: "CC(=O)N1CCN(c2ccc(Nc3ncc(F)c(N4CCC(N)CC4)n3)cc2)CC1 [Example 128]"
  target entity: "full length active recombinant SYK enzyme (Homo sapiens, UniProt P43405)"
  IC50: "> 1000 nM"
- compound: "NC(=O)CNS(=O)(=O)c1ccc(Nc2nc(NC3CCC3)c3cc[nH]c3n2)cc1 [Example 54]"
  target entity: "full length active recombinant SYK enzyme (Homo sapiens, UniProt P43405)"
  IC50: "10 to 100 nM"
- compound: "CC(=O)N(C)c1ccc(Nc2nc(NCCCCN)c3cc[nH]c3n2)cc1 [Example 62]"
  target entity: "full length active recombinant SYK enzyme (Homo sapiens, UniProt P43405)"
  IC50: "10 to 100 nM"
- compound: "COC(=O)N(C)c1ccc(Nc2nc(NC3CC3)c3cc[nH]c3n2)cc1 [Example 73]"
  target entity: "full length active recombinant SYK enzyme (Homo sapiens, UniProt P43405)"
  IC50: "100 to 1000 nM"
- compound: "N#CCC(=O)N1CCCC(Nc2nc(Nc3ccc(C(N)=O)cc3)nc3[nH]ccc23)C1 (stereo not shown) [Example 110]"
  target entity: "full length active recombinant SYK enzyme (Homo sapiens, UniProt P43405)"
  IC50: "> 1000 nM"
- compound: "CC(=O)N1CCN(c2ccc(Nc3ncc(F)c(N4CCC(NC(=O)OCc5ccccc5)CC4)n3)cc2)CC1 [Example 127]"
  target entity: "full length active recombinant SYK enzyme (Homo sapiens, UniProt P43405)"
  IC50: "> 1000 nM"
- compound: "CC(=O)N1CCN(c2ccc(Nc3nc(NCC4CCNCC4)c4c(-c5ccncc5)c[nH]c4n3)cc2)CC1 [Example 44]"
  target entity: "full length active recombinant SYK enzyme (Homo sapiens, UniProt P43405)"
  IC50: "> 1000 nM"
- compound: "CC(=O)N1CCN(c2ccc(Nc3nc(NC4CCS(=O)(=O)C4)c4cc[nH]c4n3)cc2)CC1 (stereo not shown) [Example 100A]"
  target entity: "full length active recombinant SYK enzyme (Homo sapiens, UniProt P43405)"
  IC50: "> 1000 nM"
- compound: "CCCCOC(=O)CN(C)S(=O)(=O)c1ccc(Nc2nc(NC3CCC3)c3cc[nH]c3n2)cc1 [Example 53]"
  target entity: "full length active recombinant SYK enzyme (Homo sapiens, UniProt P43405)"
  IC50: "100 to 1000 nM"
- compound: "N#CCC(=O)N1CCC(Nc2nc(Nc3ccc(C(N)=O)cc3)nc3[nH]ccc23)CC1 [Example 109]"
  target entity: "full length active recombinant SYK enzyme (Homo sapiens, UniProt P43405)"
  IC50: "> 1000 nM"
- compound: "CC(=O)N(C)c1ccc(Nc2ncc(F)c(N3CCC(CNC(=O)OC(C)(C)C)CC3)n2)cc1 [Example 28]"
  target entity: "full length active recombinant SYK enzyme (Homo sapiens, UniProt P43405)"
  IC50: "> 1000 nM"
- compound: "NC(=O)c1c[nH]c2nc(Nc3ccc4c(c3)CCC(=O)N4)nc(NC3CC3)c12 [Example 108]"
  target entity: "full length active recombinant SYK enzyme (Homo sapiens, UniProt P43405)"
  IC50: "> 1000 nM"
- compound: "NC(=O)CC1CCN(c2nc(Nc3ccc4c(c3)CCC(=O)N4)nc3[nH]ccc23)CC1 [Example 121]"
  target entity: "full length active recombinant SYK enzyme (Homo sapiens, UniProt P43405)"
  IC50: "100 to 1000 nM"
- compound: "NCC1CCN(c2nc(Nc3ccc(C(=O)O)cc3)ncc2F)CC1 [Example 131]"
  target entity: "full length active recombinant SYK enzyme (Homo sapiens, UniProt P43405)"
  IC50: "10 to 100 nM"
- compound: "CC(=O)N(C)c1ccc(Nc2nc(Nc3cccc(S(N)(=O)=O)c3)c3cc[nH]c3n2)cc1 [Example 68]"
  target entity: "full length active recombinant SYK enzyme (Homo sapiens, UniProt P43405)"
  IC50: "100 to 1000 nM"
- compound: "O=S1(=O)CCC(Nc2nc(Nc3ccc(N4CCNCC4)cc3)nc3[nH]ccc23)C1 (stereo not shown) [Example 100B]"
  target entity: "full length active recombinant SYK enzyme (Homo sapiens, UniProt P43405)"
  IC50: "> 1000 nM"
- compound: "c1cc(-c2c[nH]c3nc(Nc4ccc5cn[nH]c5c4)nc(NC4CC4)c23)ccn1 [Example 43]"
  target entity: "full length active recombinant SYK enzyme (Homo sapiens, UniProt P43405)"
  IC50: "100 to 1000 nM"
- compound: "CS(=O)(=O)Cc1cccc(Nc2nc(NC3CCC3)c3cc[nH]c3n2)c1 [Example 77]"
  target entity: "full length active recombinant SYK enzyme (Homo sapiens, UniProt P43405)"
  IC50: "100 to 1000 nM"
